Cited source: PubChem BioAssay AID330

Tested on: P388 leukemia ip, CD2F1 mice, survival T/C
Assay: NCI In Vivo Anticancer Drug Screen. Data for tumor model P388 Leukemia (intraperitoneal) in CD2F1 (CDF1) mice
Settings: endpoint: median survival time; dose: 12.5 mg/kg/injection; schedule: Q01DX009 (ip); vehicle: saline with Tween-80
Inconclusive results and toxic doses are left out. How the source made its calls: active means survival T/C of 150% or more; inactive means T/C below 125% in these data.
Pick one: True = active, False = inactive

For orientation, consider the following solved cases.
Compound	Cat
CC(C)(C)C(=O)CC(=O)C(F)(F)C(F)(F)C(F)(F)F.[Ag]	False
CCCOC(=O)/C=C(\I)C(=O)OCCC	False

Exercise: // param item: COc1cc(CC2C(=O)OCC2Cc2ccc3c(c2)OCO3)cc(OC)c1OC (stereo unspecified) ; yields the recorded call
Key: False

Exercise: // param item: C1CCC2[N-]CC3CCCCC3[N-]CC3CCCCC3[N-]CC3CCCCC3[N-]CC2C1.[Cu+2].[O-][Cl+3]([O-])([O-])O (stereo unspecified) ; yields the recorded call
Key: True

Exercise: // param item: CCCCCCCCOC(=O)c1ccc(O)cc1 ; yields the recorded call
Key: False

Exercise: // param item: O=C1C2C3C=CC(C2C(=O)N1CCl)C1C2C(=O)N(CCl)C(=O)C2C31 (stereo unspecified) ; yields the recorded call
Key: False

Exercise: // param item: c1ccc(-c2ccc(-c3csnn3)cc2)cc1 ; yields the recorded call
Key: False

Exercise: // param item: O=C(O)C(=O)O.[U] ; yields the recorded call
Key: False

Exercise: // param item: O=P(N1CC1)(N1CC1)N1CC2CCC(CC2)C1 ; yields the recorded call
Key: True

Exercise: // param item: CCN(CC)c1ccc2cc(-c3nc4ccccc4[nH]3)c(=O)oc2c1 ; yields the recorded call
Key: False

Exercise: // param item: O=C1OC2(CCCCC2)OC(=O)C1=C/C=C/c1ccc([N+](=O)[O-])o1 ; yields the recorded call
Key: False

###

System: P388 leukemia ip, CD2F1 mice, survival T/C
Assay: NCI In Vivo Anticancer Drug Screen. Data for tumor model P388 Leukemia (intraperitoneal) in CD2F1 (CDF1) mice
Conditions: endpoint: median survival time; dose: 200.0 mg/kg/injection; schedule: Q01DX001 (ip); vehicle: saline
Inconclusive results and toxic doses are left out. Rule for the calls: active = survival T/C of 150% or more; inactive = T/C below 125% in these data.
Pick one: yes for active, no for inactive

For orientation, consider the following solved cases.
Molecule	Cat
CCS(=O)(=O)OCCCNCCCOS(=O)(=O)CC	yes
C=C(CO)C(=O)OC1CC(=C)C2CC(O)C(=C)C2C2OC(=O)C(=C)C12 (stereo not drawn)	no
CCON1CCC(OC(=O)CC)(c2ccccc2)C(C)C1 (stereo not drawn)	no
COC(=O)c1ncn(CCCO)c1O	no
NC(=O)C(=Nc1ccccc1)Nc1ccccc1	no
CN(C)C=C1C=c2cc(C(=O)c3ccccc3)c(=O)c(C(=O)c3ccccc3)cc2=C1	no
O=C(N/N=C/c1ccc(Cl)cc1)c1cc2ccccc2oc1=O	no

Field: next molecule
Exercise: // param item: O=[N+]([O-])c1ccc(COc2ccccc2)cc1 ; yields the recorded call
Key: no

###

Test system: P388 leukemia ip, CD2F1 mice, survival T/C
Experiment: NCI In Vivo Anticancer Drug Screen. Data for tumor model P388 Leukemia (intraperitoneal) in CD2F1 (CDF1) mice
Conditions: endpoint: median survival time; dose: 200.0 mg/kg/injection; schedule: Q01DX001 (ip); vehicle: Klucel (hydroxypropylcellulose) (HPC); higher = longer survival
Toxic doses and inconclusive results are not listed.
Outcome Measure: T/C

Compound	T/C
Cc1ccc(S(=O)(=O)N/N=C/c2c(-c3ccccc3)nc3n2CCS3)cc1	93 % of control
Cc1ccc(OP(=O)(Oc2ccc(C)cc2)Oc2ccc(C)cc2)cc1.Cc1ccc(OP(=O)(Oc2ccc(C)cc2)Oc2ccc(C)cc2)cc1.[Cl][Co][Cl]	100 % of control

Exercise: Lab request: please report T/C under test system P388 leukemia ip, CD2F1 mice, survival T/C for C1=C(OC(=Nc2ccccc2)N2CCOCC2)N=C(OC(=Nc2ccccc2)N2CCOCC2)/C1=C1\C=C(OC(=Nc2ccccc2)N2CCOCC2)N=C1OC(=Nc1ccccc1)N1CCOCC1
Key: 107 % of control

Exercise: Lab request: please report T/C under test system P388 leukemia ip, CD2F1 mice, survival T/C for Cc1c2c(nn1C)CC(C)(C)OC2=O
Key: 100 % of control

Exercise: Lab request: please report T/C under test system P388 leukemia ip, CD2F1 mice, survival T/C for NC(=S)c1ccc(C=Nc2ccccc2)cc1
Key: 100 % of control

Exercise: Lab request: please report T/C under test system P388 leukemia ip, CD2F1 mice, survival T/C for CCn1nnnc1-c1ccccc1
Key: 88 % of control

Exercise: Lab request: please report T/C under test system P388 leukemia ip, CD2F1 mice, survival T/C for CC(C)N[C@@H]1CCC[C@H]1O
Key: 113 % of control

###

System: P388 leukemia ip, CD2F1 mice, survival T/C
Experiment: NCI In Vivo Anticancer Drug Screen. Data for tumor model P388 Leukemia (intraperitoneal) in CD2F1 (CDF1) mice
Settings: endpoint: median survival time; dose: 50.0 mg/kg/injection; schedule: Q01DX005 (ip); vehicle: saline; higher = longer survival
Toxic doses and inconclusive results are not listed.
Outcome Measure: T/C

Recorded results for 3 compounds are shown here.
Compound	Result
CC(=O)NC1C(Nc2ccc(S(=O)(=O)Nc3ccnn3-c3ccccc3)cc2)OC(CO)C(O)C1O (stereo unspecified)	108 % of control
O=S(=O)(O)C1CC(S(=O)(=O)O)NC(S(=O)(=O)O)C1 (stereo unspecified)	99 % of control
O=C(O)c1cc(NCCO)c(C(=O)O)cc1NCCO	97 % of control

Exercise: Fill blank: measured T/C of the compound OCCN(CCO)N(CCO)CCO is ____.
Key: 96 % of control

Exercise: Fill blank: measured T/C of the compound COc1ccc(CN2CCC[S+]2C)cc1 (stereo unspecified) is ____.
Key: 95 % of control

Exercise: Fill blank: measured T/C of the compound CC(C)(C)C(N)=S is ____.
Key: 103 % of control

Exercise: Fill blank: measured T/C of the compound CSCCC(N)[P+](=O)O (stereo unspecified) is ____.
Key: 99 % of control

Exercise: Fill blank: measured T/C of the compound CCCCC(CC)C(=O)OC(C)C(N)=O (stereo unspecified) is ____.
Key: 105 % of control

Exercise: Fill blank: measured T/C of the compound CCCC(C)N(CCCNc1cc(OC)cc2cccnc12)CC(C)C (stereo unspecified) is ____.
Key: 94 % of control

Exercise: Fill blank: measured T/C of the compound CC(O)C1CCNCC1 (stereo unspecified) is ____.
Key: 102 % of control

Exercise: Fill blank: measured T/C of the compound NC(N)=NCCC(Cl)C(=O)O (stereo unspecified) is ____.
Key: 101 % of control

Exercise: Fill blank: measured T/C of the compound CCN(CC)CCNc1c(C)ccc2cccnc12 is ____.
Key: 100 % of control

Exercise: Fill blank: measured T/C of the compound CCN(CC)CCOC1C=C(C)C2CC1C2(C)C (stereo unspecified) is ____.
Key: 101 % of control

Exercise: Fill blank: measured T/C of the compound CCN(Cc1cccc(S(=O)(=O)O)c1)c1ccc(C(=C2C=CC(=[N+](CC)Cc3cccc(S(=O)(=O)O)c3)C=C2)c2ccc(S(=O)(=O)O)cc2)cc1 is ____.
Key: 100 % of control

Exercise: Fill blank: measured T/C of the compound CC(=O)NC1C(NNC(=O)c2ccncc2)OC(CO)C(O)C1O (stereo unspecified) is ____.
Key: 100 % of control

Exercise: Fill blank: measured T/C of the compound CC1(C)CC(=O)C=C(NCCO)C1 is ____.
Key: 96 % of control

###

Below is a list of entries, each paired with its recorded T/C value.
Tested on: P388 leukemia ip, CD2F1 mice, survival T/C
Assay: NCI In Vivo Anticancer Drug Screen. Data for tumor model P388 Leukemia (intraperitoneal) in CD2F1 (CDF1) mice
Details: endpoint: median survival time; dose: 100.0 mg/kg/injection; schedule: Q01DX009 (ip); vehicle: saline with Tween-80; higher = longer survival
Toxic doses and inconclusive results are not listed.

Recorded results for 3 compounds are shown here.
Compound	Target Entity	Result
Clc1ccc(OCC(Cn2ccnc2)c2ccc(Cl)cc2)cc1 (stereo unspecified)	P388 leukemia ip, CD2F1 mice, survival T/C	100 % of control
CC(NC(=O)OCc1ccccc1)C(=O)Oc1ccccc1[N+](=O)[O-] (stereo unspecified)	P388 leukemia ip, CD2F1 mice, survival T/C	103 % of control
CCN(CC)C(=S)SC(=S)N(CC)CC	P388 leukemia ip, CD2F1 mice, survival T/C	108 % of control

Exercise: Fill blank: measured T/C of the compound O=C1N/C(=N\c2nc3ccccc3s2)c2ccccc21 is ____.
Key: 86 % of control

Exercise: Fill blank: measured T/C of the compound Cc1cccc(-c2cc(Cl)c3cc(S(=O)(=O)F)ccc3n2)c1 is ____.
Key: 100 % of control

Exercise: Fill blank: measured T/C of the compound CC(C)=NOc1ccccc1[N+](=O)[O-] is ____.
Key: 101 % of control

Exercise: Fill blank: measured T/C of the compound O=C1CC2CCCCC2CC1c1ccc(OCc2ccccc2)c(OCc2ccccc2)c1 (stereo unspecified) is ____.
Key: 97 % of control

Exercise: Fill blank: measured T/C of the compound O=C1C=CC(=O)C(c2ccc(Cl)cc2)=C1 is ____.
Key: 90 % of control

Exercise: Fill blank: measured T/C of the compound CCN(CC)Cc1c(C)[nH]c2ccc(NC(C)=O)cc2c1=O is ____.
Key: 114 % of control

Exercise: Fill blank: measured T/C of the compound CN1CCC(CN2c3ccccc3Sc3ccccc32)CC1 is ____.
Key: 95 % of control

Exercise: Fill blank: measured T/C of the compound C[C@]12CCC(=O)C=C1CC[C@@H]1[C@@H]2[C@@H](O)C[C@@]2(C)[C@H]1CC[C@]2(O)C(=O)COC(=O)c1ccc([N+](=O)[O-])cc1Cl is ____.
Key: 100 % of control
